Documented melting point across a set of compounds
Counter-ions that a name gives are not always drawn.
Note: unit °C is implicit; provide only the numeric part.

Known melting point results, listed for orientation:
COc1cc(OC)c(F)c(/N=c2\ccc3ncc(-c4cnn(C)c4)nc3n2CC2CCOC2)c1F (stereo not shown) [Compound 154] : 226
COc1cc(OC)c(F)c(N(C)c2ccc3ncc(-c4cnn(C)c4)nc3n2)c1F (single isomer, unassigned) [Compound 254] : 210
COc1cc(OC)c(F)c(N(Cc2ncc[nH]2)c2ccc3ncc(-c4cnn(C)c4)nc3n2)c1 (as salt: sulfate) [Compound 23] : 198
CNCCn1/c(=N/c2c(F)cccc2F)ccc2ncc(-c3cnn(C)c3)nc21 [Compound 44] : 80
COc1cc(OC)cc(N(Cc2nc[nH]n2)c2ccc3ncc(-c4cnn(C)c4)nc3n2)c1 [Compound 71] : 238
CNC(=O)c1cc(F)cc(N(Cc2ncc[nH]2)c2ccc3ncc(-c4cnn(C)c4)nc3n2)c1 [Compound 261] : 180

Consider now this further compound.
QUERY: // query melting point value for entry COc1cc(OC)c(F)c(N(Cc2ncc[nH]2)c2ccc3ncc(-c4cnn(C)c4)nc3n2)c1 (as salt: fumarate) [Compound 23]
RESULT: 186
